Tested on: blackgrass (Alopecurus myosuroides)
Method Summary: Test A1 preemergence, blackgrass
Type: in vivo
Particulars: 31 g ai/ha, 0 to 100 scale (0 no effect, 100 complete control)
Measurement Type: Plant response rating, Blackgrass
Give a plain numeric answer without units written out.

Recorded results for 10 compounds are shown here.
Exercise: Given COC1CCN(C(=O)c2cc(NS(=O)(=O)C(F)(F)F)c(C)c(C)c2C)CC1 , respond with its Plant response rating, Blackgrass.
Solution: 0

Exercise: Given Cc1cc(C)c(N(COC(=O)N(C)C)S(=O)(=O)C(F)(F)F)cc1C1=NOC2CCCC12 (stereo not shown) , respond with its Plant response rating, Blackgrass.
Solution: 0

Exercise: Given Cc1c(NS(=O)(=O)C(F)(F)F)cc(C(=O)N(C)C)c(C)c1Cl , respond with its Plant response rating, Blackgrass.
Solution: 0

Exercise: Given Cc1c(NS(=O)(=O)C(F)(F)F)cc(C2=NOC3CCCC23)c(C)c1C (stereo not shown) , respond with its Plant response rating, Blackgrass.
Solution: 0

Exercise: Given COc1cnn(-c2cc(NS(=O)(=O)C(F)(F)F)c(C)cc2C)c(=O)c1OC , respond with its Plant response rating, Blackgrass.
Solution: 30

Exercise: Given Cc1cc(Cl)c(NS(=O)(=O)C(F)(F)F)cc1N1CCC2(CCCCC2)C1=O , respond with its Plant response rating, Blackgrass.
Solution: 70

Exercise: Given Cc1cc(C)c(N(COC(=O)C(C)(C)C)S(=O)(=O)C(F)(F)F)cc1C(=O)N1CCC(F)(F)CC1 , respond with its Plant response rating, Blackgrass.
Solution: 0

Exercise: Given Cc1c(C(=O)N2CCOCC2)cc(N(COC(=O)C(C)(C)C)S(=O)(=O)C(F)(F)F)c(C)c1C , respond with its Plant response rating, Blackgrass.
Solution: 20

Exercise: Given Cc1c(NS(=O)(=O)C(F)(F)F)cc(C(=O)N2CCOCC2)c(C)c1Cl , respond with its Plant response rating, Blackgrass.
Solution: 20

Exercise: Given Cc1cc(C)c(N2CCC3(CCC(C(F)(F)F)CC3)C2=O)cc1NS(=O)(=O)C(F)(F)F (stereo not shown) , respond with its Plant response rating, Blackgrass.
Solution: 20

Now consider a different compound.
Exercise: Given Cc1cc(C)c(N(COC(=O)C(C)(C)C)S(=O)(=O)C(F)(F)F)cc1C1=NOC2(C)CCCC12 (stereo not shown) , respond with its Plant response rating, Blackgrass.
Solution: 0

###

Items are presented alongside their recorded Plant response rating, Corn.
System: corn (Zea mays)
Method Summary: Test A postemergence, corn
Assay type: in vivo
Particulars: Postemergence, 125 g ai/ha; 0 to 100 scale (0 no effect, 100 complete control)
Give a plain numeric answer without units written out.

Recorded results for 6 molecules are shown here.
Exercise: Given Cc1cc(C)c(C(=O)N2CCC3(CCCC3)CC2)cc1NS(=O)(=O)C(F)(F)F [Compound 223] , respond with its Plant response rating, Corn.
Solution: 0

Exercise: Given Cc1cc(C)c(C2=NOC3(C2)CC(C)OC(C)C3)cc1NS(=O)(=O)C(F)(F)F (single isomer, unassigned) [Compound 171] , respond with its Plant response rating, Corn.
Solution: 80

Exercise: Given Cc1cc(C)c(N(S(=O)(=O)C(F)(F)F)S(=O)(=O)C(F)(F)F)cc1C1=NOC2(CCC2)C1 [Compound 196] , respond with its Plant response rating, Corn.
Solution: 0

Exercise: Given Cc1cc(C)c(C(=O)N2CCC(CC(F)(F)F)CC2)cc1NS(=O)(=O)C(F)(F)F [Compound 234] , respond with its Plant response rating, Corn.
Solution: 0

Exercise: Given Cc1cc(Cl)c(NS(=O)(=O)C(F)(F)F)cc1C(=O)N1CCC(F)CC1 [Compound 201] , respond with its Plant response rating, Corn.
Solution: 20

Exercise: Given Cc1c(C(=O)N2CCOCC2)cc(N(S(=O)(=O)C(F)(F)F)S(=O)(=O)C(F)(F)F)c(C)c1F [Compound 174] , respond with its Plant response rating, Corn.
Solution: 20

Now consider a different molecule.
Exercise: Given Cc1cc(C)c(N2CC3(CCOCC3)OC2=O)cc1NS(=O)(=O)C(F)(F)F [Compound 156] , respond with its Plant response rating, Corn.
Solution: 20
